experiment: AUC (0 to infinity) in BALB/c nude mouse xenografted with human LoVo cells at 25 mg/kg, ip administered as single dose and measured after 12 hrs by LC-MS/MS analysis; type: ADME, organism-based; details: in vivo
measured property: AUC(0-inf) (ng·h/mL)
Answers are plain numbers, in ng·h/mL.

Query :: Request the reported AUC(0-inf) associated with C[C@@H]1COCCN1c1cc(C2([S@@](C)(=O)=NC(=O)CCc3cn(CCCCCCCC(=O)Nc4cccc5c4C(=O)N(C4CCC(=O)NC4=O)C5=O)nn3)CC2)nc(-c2ccnc3[nH]ccc23)n1 (stereo partly specified)
Result :: 4070

###

assay: MRT (0 to infinity) in BALB/c nude mouse xenografted with human LoVo cells at 25 mg/kg, ip administered as single dose and measured after 12 hrs by LC-MS/MS analysis; format: ADME, organism-based; details: in vivo
measured property: MRT inf (h)
One number for each entry, in h.

Query :: Request the reported MRT inf associated with C[C@@H]1COCCN1c1cc(C2([S@@](C)(=O)=NC(=O)CCc3cn(CCCCCCCC(=O)Nc4cccc5c4C(=O)N(C4CCC(=O)NC4=O)C5=O)nn3)CC2)nc(-c2ccnc3[nH]ccc23)n1 (stereo partly specified)
Result :: 4.65

###

assay: Half-life in BALB/c nude mouse xenografted with human LoVo cells at 25 mg/kg, ip administered as single dose and measured after 12 hrs by LC-MS/MS analysis; format: ADME, organism-based; details: in vivo
measured property: half-life (h)
Give bare numbers, in h.

Query :: Request the reported half-life associated with C[C@@H]1COCCN1c1cc(C2([S@@](C)(=O)=NC(=O)CCc3cn(CCCCCCCC(=O)Nc4cccc5c4C(=O)N(C4CCC(=O)NC4=O)C5=O)nn3)CC2)nc(-c2ccnc3[nH]ccc23)n1 (stereo partly specified)
Result :: 4.75

###

test: Tmax in BALB/c nude mouse xenografted with human LoVo cells at 25 mg/kg, ip administered as single dose and measured after 12 hrs by LC-MS/MS analysis; format: ADME, organism-based; conditions: in vivo
measured property: Tmax (h)
Give bare numbers, in h.

Query :: Request the reported Tmax associated with C[C@@H]1COCCN1c1cc(C2([S@@](C)(=O)=NC(=O)CCc3cn(CCCCCCCC(=O)Nc4cccc5c4C(=O)N(C4CCC(=O)NC4=O)C5=O)nn3)CC2)nc(-c2ccnc3[nH]ccc23)n1 (stereo partly specified)
Result :: 2
